Ref: patent US9346815B2

Tested on: JAK1-dependent STAT6 phosphorylation downstream of IL-13 stimulation in TF-1 human erythroleukemia cells
MEASUREMENT DESCRIPTION: JAK1 pathway assay in TF-1 cells (IL-13-pSTAT6, MSD)
Format: cell-based
MEASUREMENT PARAMETERS: Homo sapiens, TF-1, TF-1 cells, read-out: IL13-pSTAT6 EC50_TF-1
Where a name gives a salt, the structure may show the parent alone.
Listed next: entries and their corresponding EC50.

Examples with their reported EC50 follow.
EC50 for CN(C)C1CCN(C(=O)Cn2cc(NC(=O)c3cnn4cccnc34)c(-c3cc(Cl)ccc3OC(F)F)n2)CC1 [Example 67] is 14.6 nM

EC50 for CN(CCCC(N)=O)C1CCN(c2nc(-c3cc(Cl)ccc3OC(F)F)c(NC(=O)c3cnn4cccnc34)s2)CC1 [Example 193] is 23.5 nM

EC50 for CN1CCC2CN(C(=O)Cn3cc(NC(=O)c4c(N)nn5cccnc45)c(-c4cc(Cl)ccc4OC(F)F)n3)CCC21 (stereo not drawn) [Example 56] is 6.9 nM

EC50 for O=C(Nc1cn(C2CCN(CCCN3CCOCC3)CC2)nc1-c1cc(Cl)ccc1OC(F)F)c1cnn2cccnc12 [Example 158] is 38.8 nM

EC50 for O=C(Nc1sc(-c2ccc(CN3CC(F)C3)cc2)nc1-c1cc(Cl)ccc1OC(F)F)c1cnn2cccnc12 [Example 256] is 92 nM

EC50 for CN1C[C@@H]2CN(C(=O)Cn3cc(NC(=O)c4cnn5ccc(N)nc45)c(-c4cc(Cl)ccc4OC(F)F)n3)C[C@@H]2C1 [Example 7, hydrochloride] is 1040 nM

EC50 for CN(Cc1ccc(Cl)c(Cl)c1)C1CCN(C(=O)Cn2cc(NC(=O)c3cnn4cccnc34)c(-c3cc(Cl)ccc3OC(F)F)n2)CC1 [Example 121] is 140 nM

EC50 for O=C(Nc1cn(CC(=O)N2CCC(N(Cc3ccccc3)CC(F)(F)F)CC2)nc1-c1cc(Cl)ccc1OC(F)F)c1cnn2cccnc12 [Example 116] is 23.3 nM

Continuing:
EC50 for O=C(Nc1cn(CC(=O)N2CCOCC2)nc1-c1cc(Cl)ccc1OC(F)F)c1cnn2cccnc12 [Example 288] is 2.8 nM

EC50 for Cc1ccc(CN(C)C2CCN(C(=O)Cn3cc(NC(=O)c4cnn5cccnc45)c(-c4cc(Cl)ccc4OC(F)F)n3)CC2)c(C)c1 [Example 129] is 14.2 nM

EC50 for NC(=O)CCCN1CCC(n2cc(NC(=O)c3c(N)nn4cccnc34)c(-c3cc(Cl)ccc3OC(F)F)n2)CC1 [Example 162] is 15.4 nM

EC50 for CN(CC(F)(F)F)C1CCN(C(=O)C2CCN(c3nc(-c4cc(Cl)ccc4OC(F)F)c(NC(=O)c4cnn5cccnc45)s3)CC2)CC1 [Example 202] is 15.8 nM

EC50 for Nc1nn2cccnc2c1C(=O)Nc1cn(C2CCN(CCCN3CCN(Cc4ccccc4)C3=O)CC2)nc1-c1cc(Cl)ccc1OC(F)F [Example 166] is 22.9 nM

EC50 for CN(CC1(C#N)CCCCC1)C1CCN(C(=O)Cn2cc(NC(=O)c3cnn4cccnc34)c(-c3cc(Cl)ccc3OC(F)F)n2)CC1 [Example 114] is 15.3 nM

EC50 for CC(C)N1C[C@H]2CN(C(=O)Cn3cc(NC(=O)c4cnn5cccnc45)c(-c4cc(Cl)ccc4OC(F)F)n3)C[C@H]2C1 [Example 12] is 15 nM

EC50 for CN(Cc1cccc(Br)c1)C1CCN(C(=O)Cn2cc(NC(=O)c3cnn4cccnc34)c(-c3cc(Cl)ccc3OC(F)F)n2)CC1 [Example 122] is 24.9 nM
